biological target: P2X7 (Homo sapiens (Human)); assay: Ca2+ flux (FLIPR) in 1321N1 cells expressing recombinant human P2X7 channel; assay type: cell-based; conditions: 250 μM BzATP;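 also: Calcium-4 dye-loaded cells exposed to compound for 30 min before agonist addition, fluorescence change read 180 s after agonist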
Sequence (Q99572 whole entry): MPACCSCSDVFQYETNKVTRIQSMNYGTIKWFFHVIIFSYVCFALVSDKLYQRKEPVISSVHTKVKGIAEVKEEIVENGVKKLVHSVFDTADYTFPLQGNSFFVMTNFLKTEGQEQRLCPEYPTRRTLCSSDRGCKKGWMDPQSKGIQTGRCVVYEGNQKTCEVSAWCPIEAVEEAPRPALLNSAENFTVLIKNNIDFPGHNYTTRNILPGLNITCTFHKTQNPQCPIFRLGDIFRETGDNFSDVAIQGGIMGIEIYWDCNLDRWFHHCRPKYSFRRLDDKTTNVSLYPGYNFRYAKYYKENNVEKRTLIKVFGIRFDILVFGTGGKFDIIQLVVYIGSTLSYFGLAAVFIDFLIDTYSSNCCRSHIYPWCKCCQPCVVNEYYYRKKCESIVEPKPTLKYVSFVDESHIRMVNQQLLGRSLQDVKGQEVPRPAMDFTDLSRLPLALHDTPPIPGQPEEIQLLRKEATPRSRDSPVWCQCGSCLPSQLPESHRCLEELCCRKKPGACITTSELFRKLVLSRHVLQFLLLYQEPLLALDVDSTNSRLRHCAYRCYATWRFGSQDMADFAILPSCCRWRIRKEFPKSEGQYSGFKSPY
pIC50: −log10 of the molar value.
Measure Name: pIC50

I: O=C(c1cccc(C(F)(F)F)c1Cl)N1CCc2c(nnn2-c2ccccc2)C1
II: CC1c2ncn(-c3ccc(F)cn3)c2CCN1C(=O)c1ccc(F)c(Cl)c1Cl (centres unmarked)
## Task Determine, for I and II , which has the greater value of pIC50. Refer to your chosen entry by its label in the reply.
## Result I

A: C[C@@H]1c2nnn(-c3ccccn3)c2CCN1C(=O)c1ccc(F)c(Cl)c1Cl (single isomer, unassigned)
B: CC1CN(C(=O)c2cccc(C(F)(F)F)c2Cl)Cc2nnn(-c3ccc(F)cc3)c21 (centres unmarked)
C: CCC1c2ncn(-c3cnccn3)c2CCN1C(=O)c1cccc(C(F)(F)F)c1Cl (centres unmarked)
D: O=C(c1cccc(C(F)(F)F)c1F)N1CCc2c(nnn2-c2ccccn2)C1
## Task Which order do these items take when sorted by rising pIC50? List them. // rank by listing labels in the order requested
## Result A, B, C, D

I: C[C@H]1c2nnn(-c3ccccn3)c2CCN1C(=O)c1ccc(F)c(Cl)c1Cl (single isomer, unassigned)
II: CC1c2nnn(-c3cc[nH]n3)c2C=CN1C(=O)c1cccc(C(F)(F)F)c1Cl (centres unmarked)
## Task Sorting ascending by pIC50, which comes first: I or II ? Refer to your chosen entry by its label in the reply.
## Result II

----------
biological target: UniProt Q64663; assay: Ca2+ flux (FLIPR) in 1321N1 cells expressing recombinant rat P2X7 channel; conditions: 250 μM BzATP;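 also: Calcium-4 dye fluorescence change read 180 s after agonist addition, following 30 min cell preincubation with test compound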
Sequence (Q64663 whole entry): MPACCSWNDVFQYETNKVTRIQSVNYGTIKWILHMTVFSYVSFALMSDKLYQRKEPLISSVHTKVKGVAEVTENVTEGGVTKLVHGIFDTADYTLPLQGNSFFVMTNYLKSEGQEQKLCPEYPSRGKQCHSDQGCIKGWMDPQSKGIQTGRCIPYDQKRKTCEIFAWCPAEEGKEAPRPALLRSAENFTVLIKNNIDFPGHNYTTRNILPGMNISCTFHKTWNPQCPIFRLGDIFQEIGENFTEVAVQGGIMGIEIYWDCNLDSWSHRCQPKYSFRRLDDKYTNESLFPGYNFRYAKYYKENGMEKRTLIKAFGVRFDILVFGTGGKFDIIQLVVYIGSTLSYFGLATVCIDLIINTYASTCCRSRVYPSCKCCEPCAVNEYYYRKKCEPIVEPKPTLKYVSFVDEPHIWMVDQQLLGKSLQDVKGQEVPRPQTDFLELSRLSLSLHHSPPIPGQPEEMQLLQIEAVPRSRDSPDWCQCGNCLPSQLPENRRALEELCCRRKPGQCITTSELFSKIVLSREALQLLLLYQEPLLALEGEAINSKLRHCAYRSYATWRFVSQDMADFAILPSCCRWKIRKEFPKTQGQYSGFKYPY
pIC50: −log10 of the molar value.
Measure Name: pIC50

## Task Quick one: pIC50 for CC1c2nnn(-c3ncccn3)c2CCN1C(=O)c1ccc(Cl)cc1Cl (centres unmarked) ?
## Result 6.72

## Task Further, for Cc1cc(C)nc(-n2nnc3c2CCN(C(=O)c2cccc(C(F)(F)F)c2Cl)C3C)n1 (centres unmarked) ?
## Result 4.90

## Task Further, for Cc1cccc(-n2nnc3c2CCN(C(=O)c2cccc(C(F)(F)F)c2Cl)C3C)n1 (centres unmarked) ?
## Result 7.84

## Task Further, for C[C@@H]1Cc2c(nnn2-c2ncccn2)CN1C(=O)c1cccc(C(F)(F)F)c1Cl (single isomer, unassigned) ?
## Result 5.18

## Task Further, for `Cc1c(C(=O)N2CCc3c(nnn3-c3ncccn3)C2)cccc1C(F)(F)F` ?
## Result 6.79

## Task Further, for CC1Cc2c(nnn2-c2ccccn2)CN1C(=O)c1cccc(Cl)c1Cl (centres unmarked) ?
## Result 7.25

a: CC1c2nnn(-c3cnccn3)c2CCN1C(=O)c1ccc(Cl)cc1Cl (centres unmarked)
b: CC1c2nnn(-c3cnccn3)c2C=CN1C(=O)c1cccc(C(F)(F)F)c1Cl (centres unmarked)
c: CCOC(=O)C1c2ncn(-c3ccccn3)c2CCN1C(=O)c1cccc(C(F)(F)F)c1Cl (centres unmarked)
d: CC1c2nnn(-c3ncc(F)cn3)c2CCN1C(=O)c1cccc(Cl)c1Cl (centres unmarked)
## Task Which order do these items take when sorted by rising pIC50? List them. // rank by listing labels in the order requested
## Result d, a, b, c

A: O=C(c1ccc(Cl)cc1F)N1CCc2c(nnn2-c2ncccn2)C1
B: CCc1cccnc1-n1nnc2c1CCN(C(=O)c1cccc(C(F)(F)F)c1Cl)C2C (centres unmarked)
C: CC1c2nnn(-c3ncccc3F)c2CCN1C(=O)c1cccc(C(F)(F)F)c1Cl (centres unmarked)
## Task Which order do these items take when sorted by rising pIC50? List them. // rank by listing labels in the order requested
## Result B, A, C

a: Cc1ccnc(-n2nnc3c2CCN(C(=O)c2cccc(C(F)(F)F)c2Cl)C3C)n1 (centres unmarked)
b: Cn1nc2c(c1-c1ccccn1)CCN(C(=O)c1cccc(C(F)(F)F)c1Cl)C2
c: CCc1nc2c(n1-c1ccccc1)CCN(C(=O)c1cccc(Cl)c1Cl)C2
d: Cc1cc(C)nc(-n2nnc3c2CCN(C(=O)c2cccc(C(F)(F)F)c2Cl)C3C)c1 (centres unmarked)
## Task Which order do these items take when sorted by rising pIC50? List them. // rank by listing labels in the order requested
## Result d, c, b, a
